system: Vero E6; experiment: cell viability relative to DMSO; higher = less toxic; details: 72 h; 10000 nM
We label by threshold. Values of cell viability strictly beneath 90% are Criterion met. Values of 90% and up are Criterion not met.

ENTRY SMILES: Cc1cc(C)cc(C(=O)N(C)[C@H](Cc2ccc(-c3ccccc3)cc2)C(=O)N[C@@H](Cc2c[nH]c3ccccc23)C(=O)O)c1
ASSIGNED CLASS: Criterion not met
//
ENTRY SMILES: O=S(=O)(O)c1ccc(O)cc1
ASSIGNED CLASS: Criterion not met
//
ENTRY SMILES: CCCCN(CCCC)C(=O)CN1C[C@H](c2ccc3c(c2)OCO3)[C@@H](C(=O)O)[C@@H]1c1ccc(OC)cc1
ASSIGNED CLASS: Criterion not met
//
ENTRY SMILES: COc1ccccc1-c1c[nH]c2ncc(-c3cncc(C(=O)N(C)C)c3)cc12
ASSIGNED CLASS: Criterion not met
//
ENTRY SMILES: CCCCN1CCC(CNC(=O)c2c3n(c4ccccc24)CCCO3)CC1
ASSIGNED CLASS: Criterion not met

Challenge: # check: cell viability < 90% for C[n+]1c2cc(N)ccc2cc2ccc(N)cc21.Nc1ccc2cc3ccc(N)cc3nc2c1
Response given: Criterion met

###

test system: Calu-3; test: cell viability relative to DMSO; higher = less toxic; conditions: 72 h; 10 nM
RESULT TYPE: cell viability (%)
Please respond with the number in % and leave the unit unwritten.

COMPOUND: CCCCN(CCCC)C(=O)CN1C[C@H](c2ccc3c(c2)OCO3)[C@@H](C(=O)O)[C@@H]1c1ccc(OC)cc1
RESULT TYPE: cell viability
RECORDED RESULT: 94.6

Challenge: Look up and state reported cell viability for CCCCC1=NC2(CCCC2)C(=O)N1Cc1ccc(-c2ccccc2-c2nnn[nH]2)cc1
Response given: 97.1

Challenge: Look up and state reported cell viability for CCCCN1CCC(CNC(=O)c2c3n(c4ccccc24)CCCO3)CC1
Response given: 91.9

###

test system: Vero E6; assay: cell viability relative to DMSO; higher = less toxic; conditions: 72 h; 10000 nM
Reported cell viability by item:
Please respond with the number in % and leave the unit unwritten.

COMPOUND: CC(CCc1ccc(O)cc1)NCC(O)c1ccc(O)cc1 (centres undefined)
cell viability, %: 104

Challenge: Look up and state reported cell viability for C=C(c1ccc(C(=O)O)cc1)c1cc2c(cc1C)C(C)(C)CCC2(C)C
Response given: 98

Challenge: Look up and state reported cell viability for CCOC(=O)[C@H](Cc1ccccc1)NC(=O)c1cc(Cl)c(OCCN2CCN(C)CC2)c(Cl)c1O
Response given: 103

Challenge: Look up and state reported cell viability for CC(C)c1nnc(-c2ccc(-c3ccccc3)nc2)n1-c1cccc2nonc12
Response given: 92.9

Challenge: Look up and state reported cell viability for COc1ccc2[nH]cc(C3=CCNCC3)c2c1
Response given: 100

Challenge: Look up and state reported cell viability for CN(CC[C@@H](Oc1ccc(-c2ccccc2)cc1)c1ccc(F)cc1)CC(=O)O
Response given: 96.4

Challenge: Look up and state reported cell viability for CC(C)(C)c1ccc(S(=O)(=O)/C=C/C#N)cc1
Response given: -0.3

Challenge: Look up and state reported cell viability for CCCCNc1nc(N)c2[nH]c(=O)n(Cc3ccc(OCCN(C)C)nc3)c2n1
Response given: 96.3

Challenge: Look up and state reported cell viability for Cc1ncc([N+](=O)[O-])n1CC(O)CCl (centres undefined)
Response given: 104
